target: BRD2 BD2 (Homo sapiens); construct: BRD2 BD2, BRD3 BD2 and BRD4 BD2 (Cisbio); purchased Cisbio; experiment: Binding assay, BRD2 BD2 to acetylated histone H4 Peptide-Biotin (EPIgeneous Binding Domain Kit B); settings: test compound at 300 nmol/L; read-out: Binding inhibition percentage BRD2 BD2
Sequence (P25440 344-453 limits assumed): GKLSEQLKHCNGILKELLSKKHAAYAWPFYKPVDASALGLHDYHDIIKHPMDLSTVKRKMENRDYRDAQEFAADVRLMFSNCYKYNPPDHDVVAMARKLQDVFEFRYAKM
MEASURED PROPERTY: inhibition at 0.3 µM (%)

{"MOLECULE": "CCn1c(=O)cc(N2CCOCC2)c2cc(-c3nccn3-c3ccccc3)ccc21", "inhibition at 0.3 µM (%)": 85}
{"MOLECULE": "CCn1c(=O)cc(C2CC2)c2cc(-c3nccnc3-c3ccccc3)ccc21", "inhibition at 0.3 µM (%)": 88}
{"MOLECULE": "CCn1c(=O)cc(C2CC2)c2cc(N3C(=O)C(C)C(=O)N3c3ccccc3)ccc21 (stereo not shown)", "inhibition at 0.3 µM (%)": 88}
{"MOLECULE": "CCn1c(=O)cc(C2CCN(C)CC2)c2cc(C(=O)N(C)c3ccc4c(c3)CCC4)ccc21", "inhibition at 0.3 µM (%)": 85}
